System: LC3
Test: LC3 marker assay (LC3-I to LC3-II conversion immunoblot);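 also: HeLa cells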
Format: cell-based
Design: key: −: activity not reported; 0: decreased vs. WT; +: similar to WT; ++: modest increase vs. WT; +++: significant increase vs. WT
Details: 50 μM; Table 3, control vehicle; second symbol
Where no end group is shown, it is not given here.
READOUT_LABEL: Activity (μM) 50, LC3 assay activity

VWNATFHIWH (not fully specified (N-terminus, C-terminus)) [Compound 5, likely pa-10mer] ... +
YGRKKRRQRRRGGVWNATFHIWHD [8] (not fully specified (N-terminus, C-terminus)) [Compound 8] ... +++
VCNACFHIWH [Compound 3] ... +++
VCNACFHIWH [Compound 9] ... 0/0
VWNATFHIWHD (not fully specified (N-terminus, C-terminus)) [Compound 6, likely pa-11mer] ... 0/0
VCNATCHIWH [Compound 2] ... 0/0
VCNACFHIWH [Compound 4] ... 0/0
VCNACFHIWH [Compound 10] ... +++
VCNATCHIWH [Compound 1] ... 0/0

---

Tested on: p62
Assay: p62 degradation assay (p62/actin immunoblot);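 also: HeLa cells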
Assay type: cell-based
Parameters: key: −: activity not reported; 0: decreased vs. WT; +: similar to WT; ++: modest increase vs. WT; +++: significant increase vs. WT
Conditions: 50 μM; Table 6, control DMSO; first symbol
READOUT_LABEL: Activity (μM) 50, p62/actin assay activity

VCNATCHIWH [Compound 16] ... +++
VCNATCHIWH [Compound 19] ... ++
VCNATCHIWH [Compound 22] ... +++
VCNATCHIWH [Compound 23] ... +++
VCNATCHIWH [Compound 18] ... 0/0
VCNATCHIWH [Compound 17] ... +++
VCNATCHIWH [Compound 26] ... +++/+++
VCNATCHIWH [Compound 21] ... +++
VCNATCHIWH [Compound 15] ... +++
VCNATCHIWH [Compound 20] ... +++
VCNATCHIWH [Compound 25] ... +++/+++
VCNATCHIWH [Compound 24] ... +++

---

Test system: LC3
Test: LC3 marker assay (LC3-I to LC3-II conversion immunoblot);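 also: HeLa cells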
Type: cell-based
Design: key: −: activity not reported; 0: decreased vs. WT; +: similar to WT; ++: modest increase vs. WT; +++: significant increase vs. WT
Conditions: 10 μM; Table 8, control compound T25; second symbol
Where no end group is shown, it is not given here. c(FΦRRRRE) = cyclic peptide with F and E termini bonded, Φ = L-2-naphthylalanine
READOUT_LABEL: Activity (μM) 10, LC3 assay activity

VFNATFEIWH [Compound T25] ... +++
VCNATCHIWH [Compound 33] ... +
VWNATFHIWH (not fully specified (N-terminus, C-terminus)) [Compound 64] ... 0/0
VCNATCHIWH [Compound 17] ... +++
VWNATCHIWC [Compound 59] ... 0/0
VCNATCHIWH [Compound 35] ... 0/0
VCNATCHIWH [Compound 34] ... 0/0
VWNATFHIWHD [63] (not fully specified (N-terminus, C-terminus)) [Compound 63] ... +
VCNACFHIWH [Compound 57] ... 0/0
VWNATFHIWHD [62] ({c(FΦRRRRE)}-VWNATFHIWHD; not fully specified; printed as R1 cyclic c(FΦRRRRE) attached) [Compound 62] ... +++
VCNACFHIWH [Compound 55] ... 0/0
VCNACFHIWH [Compound 56] ... 0/0
VCNACFHIWH [Compound 54] ... 0
